The reported numbers originate from patent US20090098124A1.

Target: T1, soluble dimeric FcγRIIB (extracellular domain fused to hinge-CH2-CH3 of human IgG2) (human, UniProt P31994 43-217)
T1 construct: extracellular domain; also called FcRIIB; FcRIIB-Fc; not shown: human IgG2 hinge-CH2-CH3
T1 sequence (looked up): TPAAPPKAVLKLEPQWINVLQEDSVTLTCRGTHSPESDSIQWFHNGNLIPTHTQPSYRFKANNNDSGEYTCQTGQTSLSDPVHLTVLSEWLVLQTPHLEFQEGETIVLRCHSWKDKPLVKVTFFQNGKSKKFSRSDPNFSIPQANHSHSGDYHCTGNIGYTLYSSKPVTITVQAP
Assay: ELISA
Property measured: Binding to FcγRIIB (ELISA)
State the result as a value with its unit after it.

// query Look up Binding to FcγRIIB (ELISA) of IgG1 Fc mutant K222N, T335N, K370E, A378V, T394M (antibody) heavy: ASTKGPSVFPLAPSSKSTSGGTAALGCLVKDYFPEPVTVSWNSGALTSGVHTFPAVLQSSGLYSLSSVVTVPSSSLGTQTYICNVNHKPSNTKVDKKVEPKSCDNTHTCPPCPAPELLGGPSVFLFPPKPKDTLMISRTPEVTCVVVDVSHEDPEVKFNWYVDGVEVHNAKTKPREEQYNSTYRVVSVLTVLHQDWLNGKEYKCKVSNKALPAPIEKNISKAKGQPREPQVYTLPPSRDELTKNQVSLTCLVEGFYPSDIVVEWESNGQPENNYKTMPPVLDSDGSFFLYSKLTVDKSRWQQGNVFSCSVMHEALHNHYTQKSLSLSPGK and report it.
// result 7 fold increase
